assay: small-molecule microarray binders of probe aWnt5a, primary screen, biochemical, biotinylated probe, 635/667 nm fluorescence (AID 1113); details: higher = more signal;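 further: score merges 667 nm fluorescence intensity with signal-to-noise per printed feature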
Property name: composite z-score
Numbers only.

Recorded results for 3 molecules are shown here.
| Molecule | composite z-score |
| --- | --- |
| C=CC[C@]1(C(=O)N2CCCCC2)COC(c2ccc(OCCCO)cc2)=N1 | -0.176 |
| CC(C)C[C@@H]1NC(=O)[C@@]23C(=O)N[C@@H](Cc4ccccc4)C2[C@H](C)[C@@]2(C)O[C@H]2C3/C=C/C/C=C\CNC(=O)[C@H](Cc2ccccc2)NC1=O (stereo not given in full) | -0.152 |
| O=C1c2ccccc2[C@@]2(Cc3ccccc3N(CC(F)(F)F)C2=O)[C@H](c2ccc(CO)cc2)N1Cc1ccccc1C(F)(F)F | -0.104 |

For every listed record, write down its composite z-score.
1. C=C(COC)C(=O)CC[C@@H](OC(=O)c1ccccc1-c1ccccc1C(=O)O)c1cccc(OCCO)c1
2. COC(=O)c1c(CC[C@@H](CO)NC(=O)Nc2ccc(OC)cc2)oc(C(=O)Cc2ccccc2)c1C(=O)OC

[-0.096, -0.0445]

###

test system: wheat germ agglutinin (Triticum aestivum), Alexa647-labelled; assay: wheat germ agglutinin binders on compound microarrays, profiling panel, artefact control for SMM control-protein annotation, biochemical, small-molecule microarray, 635/667 nm fluorescence (AID 1140); conditions: WGA-A647 binding, 635 nm fluorescence, higher = more signal;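 further: score merges 667 nm feature emission with signal to noise over triplicate slides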
Property name: composite z-score

Recorded results for 2 compounds are shown here.
| Compound | composite z-score |
| --- | --- |
| CC(C)CNC(=O)[C@@H]1c2ccccc2C(=O)N(Cc2ccc(OC(F)(F)F)cc2)[C@H]1c1ccc(CO)cc1 | 0.75 |
| COCCOC(=O)N1C(=O)[C@@]2(c3cc(C#CC4(O)CCCCCC4)ccc31)[C@H](C(=O)NC[C@H](O)c1ccccc1)[C@H]1C(=O)O[C@H](c3ccccc3)[C@H](c3ccccc3)N1[C@@H]2c1ccccc1OCCO | 0.791 |

Give recorded composite z-score with wheat germ agglutinin (Triticum aestivum), Alexa647-labelled for the following compound: CC(C)C[C@@H]1NC(=O)[C@@H]2C[C@H](C(=O)NCCCCCNC(=O)CS)[C@H](c3cccc(OCCO)c3)N2C1=O 1.23

###

experiment: inhibitors of CMV-promoter luciferase reporter, dose response, counter-screen for Pax8 inhibitor project, cell-based, HEK293, luminescence, dry powder (AID 743020); conditions: SteadyGlo luminescence, 24 h; series mostly up to 35 µM;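 further: HEK293 cells stably expressing the CMV luciferase reporter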
Results with a measured potency or affinity are listed apart. Records with an inconclusive call do not appear. The source made the active and inactive calls.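 Rule for the calls: active = signal-lowering compounds whose fitted half-maximal concentration is at or below twice the top tested dose in every run; inconclusive = runs disagree, flat 30 to 70% inhibition, or poor curve fit; inactive = the rest.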
Property name: activity change, negative = inhibition

| Compound | Property name | Recorded result |
| --- | --- | --- |
| C[C@@H]1CCCCO[C@@H](CN(C)Cc2ccc(C(F)(F)F)cc2)[C@H](C)CN([C@H](C)CO)C(=O)c2cc(NS(=O)(=O)c3ccccc3)ccc2O1 | activity change, negative = inhibition | inactive |
| C[C@H](CO)N1C[C@H](C)[C@@H](CN(C)S(=O)(=O)c2ccc(Cl)cc2)OCCCC[C@H](C)Oc2ccc(NS(=O)(=O)c3ccc(Cl)cc3)cc2C1=O | activity change, negative = inhibition | inactive |
| Cc1ccccc1-c1ccc2c(c1)O[C@H](CN(C)C(=O)Nc1ccc(C(F)(F)F)cc1)[C@H](C)CN([C@H](C)CO)S2(=O)=O | activity change, negative = inhibition | inactive |
| CC=Cc1ccc2n(c1=O)C[C@H]1[C@H](CO)[C@@H](C(=O)NC3CCC3)N(CC)[C@@H]21 (mixture of isomers) | activity change, negative = inhibition | inactive |
| Cc1ccc(S(=O)(=O)c2nc(S(=O)(=O)c3ccccc3)sc2N2CCN(C)CC2)cc1 | activity change, negative = inhibition | inactive |
| O=C(C[C@H]1CC[C@@H]2[C@H](COC[C@H](O)CN2S(=O)(=O)c2cccc(F)c2)O1)Nc1ccc(-c2ccccc2)cc1 | activity change, negative = inhibition | inactive |

Which activity change, negative = inhibition reading was recorded for the compound C[C@@H]1CCCCO[C@H](CN(C)S(=O)(=O)c2cccs2)[C@H](C)CN([C@@H](C)CO)C(=O)c2cc(NC(=O)CCC(F)(F)F)ccc2O1 ? inactive

###

assay: cell viability in Huh7 cells, primary screen, cytotoxicity control for HCV replication inhibitor project, CellTiter-Glo luminescence, basal, 48 h (AID 1143); settings: Huh7 HCV replicon, higher = more signal, called active from +8 up or from −8 down;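 further: Huh7 hepatoma cells carrying a hepatitis C replication reporter with no stimulus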
Field: z-score. Provide a value for each of the molecules that follow.
Give bare numbers.

| Molecule | z-score |
| --- | --- |
| CC(=O)NCCCC[C@@H]1NC(=O)[C@@H]2C[C@H](C(=O)O)[C@H](c3cccc(OCCO)c3)N2C1=O | -0.533 |

For every listed record, write down its z-score.
1. Cc1ccc(S[C@]2(C(=O)NCCN3CCOCC3)CC(=O)N(Cc3cc(C(F)(F)F)cc(C(F)(F)F)c3)[C@@H]2c2ccc(CO)cc2)cc1
2. COc1ccc([Si](C)(C)[C@@H]2[C@@H](CC(=O)N3CCC[C@H]3CO)O[C@]3(C(=O)N(Cc4ccc(I)cc4)c4ccccc43)[C@H]2C)cc1
3. C[C@@H](OCc1ccccc1)C1NC(=O)[C@@]23C(=O)N[C@@H](Cc4ccccc4)C2[C@H](C)[C@@]2(C)O[C@H]2C3/C=C/C/C=C\CNC(=O)[C@@H]2CCCN2C1=O (stereo partly specified)

1: -2.39; 2: -4.55; 3: -0.866

###

Field: z-score. Provide a value for each of the molecules that follow.
assay: PSAC antagonists in infected red cells, primary screen, cell-based, P. falciparum Indochina, OD700, 2 h (AID 1155);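 further: lysis reports solute entry through the parasite surface anion channel PSAC; channel blockers reduce lysis of infected cells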; settings: P. falciparum Indochina infected erythrocytes, osmotic lysis OD700; higher = more signal, called active from +8 up or from −8 down
Calls of active or inactive are those of the source.

Recorded results for 2 molecules are shown here.
| Compound | z-score |
| --- | --- |
| O=C1c2ccccc2[C@@]2(Cc3ccccc3N(CC(F)(F)F)C2=O)[C@H](c2ccc(CO)cc2)N1Cc1ccccc1C(F)(F)F | -0.926 (inactive) |
| COC(=O)[C@@]1(CCC(=O)OC(C)(C)C)COC(c2ccc(OCCCO)cc2)=N1 | 3.26 (inactive) |

Now for a further molecule.
Which z-score reading was recorded for the molecule COCCOC(=O)N1C(=O)[C@@]2(c3cc(C#CC4(O)CCCCCC4)ccc31)[C@H](C(=O)NC[C@H](O)c1ccccc1)[C@H]1C(=O)O[C@H](c3ccccc3)[C@H](c3ccccc3)N1[C@@H]2c1ccccc1OCCO ? 1.55 (inactive)

###

system: PRMT1 (protein arginine N-methyltransferase 1); test: PRMT1 binders on small-molecule microarrays, primary screen, biochemical, small-molecule microarray, 635 nm fluorescence (AID 1088); conditions: small-molecule microarray binding, higher = more signal;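 further: binding of Prmt1 protein to compounds spotted on small-molecule microarray slides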
Field: composite z-score. Provide a value for each of the molecules that follow.
Numbers only.

For every listed record, write down its composite z-score.
1. CC(=O)NCCCC[C@@H]1NC(=O)[C@@H]2C[C@H](C(=O)O)[C@H](c3cccc(OCCO)c3)N2C1=O
2. COc1ccc(C#Cc2ccc3c(c2)[C@]2(C(=O)N3)[C@H](c3ccc(O)cc3)N3[C@H](c4ccccc4)[C@H](c4ccccc4)OC(=O)[C@H]3[C@@H]2C(=O)N2CCN(c3ncccn3)CC2)cc1
3. C=CCNC(=O)[C@H]1[C@@H]2C(=O)O[C@@H](c3ccccc3)[C@@H](c3ccccc3)N2[C@@H](c2ccc(OCCO)cc2)[C@]12C(=O)Nc1ccc(C#CCCO)cc12
4. C=C(COC)C(=O)CC[C@H](OC(=O)c1cccnc1)c1cccc(OCCO)c1

[1.55, 1.18, 1.57, 1.36]

For every listed record, write down its composite z-score.
1. C=C(COC)/C(=C/C[C@H](OC(C)=O)c1ccc(CO)o1)c1cnc2ccccc2c1
2. COc1ccc([Si](C)(C)[C@@H]2[C@@H](CCn3cc(CCO)nn3)O[C@]3(C(=O)N(Cc4ccc(N5C(=O)c6cccc7cccc5c67)cc4)c4ccccc43)[C@H]2C)cc1
3. C=CCN1C(=O)[C@@]2(O[C@@H](CCO)[C@H]([Si](C)(C)c3ccc(OC)cc3)[C@H]2C)c2cc(N(C=O)c3ccccc3)ccc21
4. [N-]=[N+]=NCc1ccccc1C[C@@]1(C(=O)NCc2ccccc2)N=C(c2ccc(OCCCO)cc2)O[C@@H]1c1ccccc1

[1.41, 1.51, 1.11, 0.475]

###

assay: basal MM1S mitochondrial membrane potential changes, profiling panel, cell-based, JC-1 fluorescence, 24 h, 100 nL compound (AID 1170); details: higher = more signal
Field: z-score. Provide a value for each of the compounds that follow.
One number for each entry.

Recorded results for 2 compounds are shown here.
| Compound | Recorded result |
| --- | --- |
| O=C(O)[C@H]1C[C@H]2C(=O)NCC(=O)N2[C@H]1c1cccc(OCCO)c1 | 1.14 |
| COCCOC(=O)N1C(=O)[C@@]2(c3cc(C#CC4(O)CCCCCC4)ccc31)[C@H](c1ccccc1OCCO)N1[C@H](c3ccccc3)[C@H](c3ccccc3)OC(=O)[C@H]1[C@@H]2C(=O)Nc1nc2ccccc2s1 | -0.807 |

For every listed record, write down its z-score.
1. C=C(COC)C(=O)CC[C@H](OC(=O)c1cccnc1)c1cccc(OCCO)c1
2. CC(C)C[C@@H]1NC(=O)[C@H]2C[C@@H](C(=O)NCCCC[N+](C)(C)C)[C@@H](c3cccc(OCCO)c3)N2C1=O

1: -0.615; 2: 0.0969

Every entry's value here was drawn from PubChem BioAssay.
